Reference for the values: PubChem BioAssay AID1159580

# experimental_details: chemical genetic growth profiling, strain panel (AID 1159580);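 also: tested at 20 µM; growth read once vehicle control cultures reached saturation at 30 °C; 1 = growth at the plate median or of vehicle wells; lower values mean less growth of the strain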
# study_conditions: S. cerevisiae deletion strains, growth OD, locus YDR162C, strain NBP2, hits give low values
In all, about 5,500 compounds went through this assay and about 2,000 (36%) were called active. Roughly 18% stayed inconclusive and do not appear here. The list shows a part of the results.
measured_quantity: normalized growth
Reply with just the number.

compound: CN1CC(CNC(=O)OCc2ccccc2)CC2c3cccc4c3c(cn4C)CC21 (stereo not given)
normalized growth: 1.02
--
compound: CC12CC3CC(C)(C1)CC(N)(C3)C2
normalized growth: 1.01
--
compound: N[C@H](Cc1ccccc1)C(=O)O
normalized growth: 1.02
--
compound: CCC(=O)Nc1ccc(Cl)c(Cl)c1
normalized growth: 0.985

// normalized growth lookup, compound = N[C@@H]1[C@@H](O)[C@H](O)[C@@H](CO)O[C@H]1O , result: 1

Entry CO[C@]12C[C@@H](COC(=O)c3cncc(Br)c3)CN(C)[C@@H]1Cc1cn(C)c3cccc2c13 , normalized growth reported as 1

Record CC(CN1c2ccccc2Sc2ccccc21)N(C)C (stereo not given) . Reported normalized growth: 0.982

# normalized growth of COc1cc(OC)c(OC)cc1C=O = 1.06

Form field normalized growth, entry COc1c2ccccc2nc2occc12 : 0.926

* * *

Collected normalized growth values appear next to each entry.
# experimental_details: chemical genetic growth profiling, strain panel (AID 1159580)
# study_conditions: S. cerevisiae deletion strains, growth OD, locus YNL183C, strain NPR1, hits give low values
Among all 5,500 compounds or so, about 2,000 (36%) were called active. About 18% were inconclusive and are not listed. This is one part of the list.
Note: the reply should be a number with no unit written.

Below: 5 compounds and their reported normalized growth.
compound: NC(Cc1ccc(F)cc1)C(=O)O (stereo unspecified)
normalized growth: 0.969
//
compound: CCN(CC)CCOC(=O)C(c1ccccc1)c1ccccc1
normalized growth: 0.94
//
compound: C[C@@H]1CC2C3C[C@H](F)C4=CC(=O)C=C[C@]4(C)[C@@]3(F)[C@@H](O)C[C@]2(C)[C@@]1(O)C(=O)COC(=O)C(C)(C)C (stereo partly specified)
normalized growth: 0.962
//
compound: O=C(CCn1c(=O)oc2ccccc21)Sc1ccc(Cl)cc1Cl
normalized growth: 0.249
//
compound: CCN(CC)CCOCCOC(=O)C(CC)(CC)c1ccccc1
normalized growth: 0.908

Recorded result, N[C@@H](Cc1cc(I)c(Oc2cc(I)c(O)c(I)c2)c(I)c1)C(=O)O , normalized growth: 0.945

Entry N[C@H](Cc1ccccc1)C(=O)O — recorded normalized growth = 0.988

# normalized growth of CCCC(C(=O)OCCN(CC)CC)(c1ccccc1)c1ccccc1 = 0.946

normalized growth reported for this compound O=C(CCn1c(=O)oc2ccccc21)Sc1ccc(C(F)(F)F)cc1 : 0.778

Recorded normalized growth (compound CC(CN(C)C)CN1c2ccccc2Sc2ccccc21 (stereo unspecified) ): 0.948

For this compound ( C=Cc1c(C)c2[n-]c1=Cc1[n-]c(c(CC)c1C)C=c1[n-]c3c(c1C)C(=O)C(C(=O)[O-])C=3c1[n-]c(c(C)c1CCC(=O)[O-])C=2.[Cu] (stereo unspecified) ), measured normalized growth is 0.862

* * *

# experimental_details: chemical genetic growth profiling, strain panel (AID 1159580)
# study_conditions: S. cerevisiae deletion strains, growth OD, locus YDR137W, strain rgp1
Screen size: about 5,500 compounds; about 2,000 (36%) were called active. Another 18% or so got no clear call; they are omitted. No stated cut-off is given here; in the data, active means normalized growth mostly below about 0.91 (no sharp cut-off); inconclusive means no clear call, values can overlap the other calls; inactive means mostly above about 0.92. This is one part of the list.
Returns: one label drawn from active, inactive

Consider the worked cases shown below.
compound: Cc1cc(C)cc(OCC2CNC(=O)O2)c1 (centres undefined)
assigned_category: inactive

compound: CC1(C)C(O)CC(O)C2(C)C1CC(O)C1(C)C2CCC2(C)C(c3ccoc3)OC(=O)C3OC321 (centres undefined)
assigned_category: inactive

compound: C=C1C(C2(C)C=CC(=O)C(C)(C)C2CC(=O)OC)CC[C@@]2(C)[C@H](c3ccoc3)OC(=O)C3OC132 (some centres undefined)
assigned_category: inactive

compound: O=C(Nc1ccccc1)Nc1ccccc1
assigned_category: inactive

compound: NS(=O)(=O)c1cc2c(cc1Cl)NC(C1CC3C=CC1C3)NS2(=O)=O (centres undefined)
assigned_category: inactive

Entry Cc1cc(=O)oc2c(O)c(O)ccc12 : call = ?
inactive

What call does the record list for C[C@@H](N)[C@@H](O)c1ccccc1 ?
inactive

Write down the call the test reported for this compound. Item: CCOC(=O)[C@H](CCc1ccccc1)N[C@@H](C)C(=O)N1Cc2ccccc2C[C@H]1C(=O)O
inactive

For NC(N)=O , what call appears in the results of this test?
inactive

Dear colleague, could you share the recorded outcome for C=C1C2CC[C@@]3(C)[C@H](c4ccoc4)OC(=O)C[C@]13O[C@H]1CC(O)C(C)(C)C(CC(=O)OC)[C@@]21C (some centres undefined) when you have a moment?
inactive

Hi, do you know how CC(=O)Nc1ccccc1 came out in this test?
inactive

Per the assay record, what outcome was assigned to COC(=O)CCCOc1ccc(Cl)cc1Cl ?
inactive

* * *

# experimental_details: chemical genetic growth profiling, strain panel (AID 1159580)
# study_conditions: S. cerevisiae deletion strains, growth OD, locus YNL248C, strain rpa49, hits give low values
Hit rate of the full screen: of about 5,500 compounds, about 2,000 (36%) were called active. Roughly 18% stayed inconclusive and do not appear here. Some of the results follow.
This listing pairs compounds with measured normalized growth.
Just the number, please.

compound: CC(=O)Nc1ccccc1
normalized growth: 0.969

compound: c1ccc2nc(N3CCNCC3)ccc2c1
normalized growth: 0.996

compound: O=c1[nH]cnc2[nH]ncc12
normalized growth: 1.04

compound: NC(N)=O
normalized growth: 0.978

The compound listed as NC(Cc1ccc(F)cc1)C(=O)O (stereo not given) has a reported normalized growth of 0.982

// normalized growth value for COc1cc(OC)c(OC)cc1C=O : 1

Short answer for CC(=O)O[C@H]1C[C@@H](OC(C)=O)C(C)(C)C2CC(=O)[C@]3(C)C(CC[C@@]4(C)[C@H](c5ccoc5)OC(=O)[C@H]5O[C@]543)[C@]21C (stereo not given in full) : normalized growth was 0.981

Lab note: C[C@@H]1CC2C3C[C@H](F)C4=CC(=O)C=C[C@]4(C)[C@@]3(F)[C@@H](O)C[C@]2(C)[C@@]1(O)C(=O)COC(=O)C(C)(C)C (stereo not given in full) gave normalized growth of 1.01

Entry Clc1ccc2c(c1)C(N1CCNCC1)=Nc1ccccc1O2 , normalized growth reported as 0.998

* * *

# experimental_details: chemical genetic growth profiling, strain panel (AID 1159580);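 also: tested at 20 µM; growth read once vehicle control cultures reached saturation at 30 °C; 1 = growth at the plate median or of vehicle wells; lower values mean less growth of the strain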
# study_conditions: S. cerevisiae deletion strains, growth OD, locus YJL095W, strain BCK1 (second series), hits give low values
The whole screen tested about 5,500 compounds, of which about 2,000 (36%) were called active. Another 18% or so got no clear call; they are omitted. Some of the results follow.
Decide using normalized growth alone. Strictly below 1: 1.0. Equal to or above 1: 0.0.

Solved entries:
molecule: NC(=O)c1ncn(C2O[C@H](CO)[C@@H](O)[C@H]2O)c1N (stereo partly specified)
assigned_category: 0.0

molecule: O=c1cc(-c2cc(O)c(O)c(O)c2)oc2cc(O)cc(O)c12
assigned_category: 1.0

Next, consider the following molecule.
Check if normalized growth falls below 1 for CC(CN1c2ccccc2Sc2ccccc21)N(C)C (stereo unspecified) .
1.0

* * *

Entries and their normalized growth values follow.
# experimental_details: chemical genetic growth profiling, strain panel (AID 1159580);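 also: tested at 20 µM; growth read once vehicle control cultures reached saturation at 30 °C; 1 = growth at the plate median or of vehicle wells; lower values mean less growth of the strain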
# study_conditions: S. cerevisiae deletion strains, growth OD, locus YGL240W, strain doc1, hits give low values
The whole screen tested about 5,500 compounds, of which about 2,000 (36%) were called active. Roughly 18% stayed inconclusive and do not appear here. The list shows a part of the results.
Enter the number alone.

molecule: CSc1ccc2c(c1)N(CCC1CCCCN1C)c1ccccc1S2 (stereo unspecified)
normalized growth: 0.955
//
molecule: O=C(O)CCCOc1ccc(Cl)cc1Cl
normalized growth: 0.912
//
molecule: C=C1C2CC[C@@]3(C)[C@H](c4ccoc4)OC(=O)C[C@]13O[C@H]1CC(=O)C(C)(C)C(CC(=O)OC)[C@@]21C (stereo partly specified)
normalized growth: 0.974

The recorded normalized growth for C=C[C@H]1CN2CC[C@H]1C[C@@H]2[C@H](O)c1ccnc2ccccc12 is 0.986

The recorded normalized growth for entry CC(=O)OCC(=O)[C@@]1(O)[C@H](OC(C)=O)CC2C3CCC4=CC(=O)C=C[C@]4(C)[C@@]3(F)[C@@H](O)C[C@@]21C (stereo partly specified) equals 1.02

* * *

# experimental_details: chemical genetic growth profiling, strain panel (AID 1159580);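 also: tested at 20 µM; growth read once vehicle control cultures reached saturation at 30 °C; 1 = growth at the plate median or of vehicle wells; lower values mean less growth of the strain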
# study_conditions: S. cerevisiae deletion strains, growth OD, locus YDR001C, strain nth1, hits give low values
In all, about 5,500 compounds went through this assay and about 2,000 (36%) were called active. Another 18% or so got no clear call; they are omitted. The list shows a part of the results.
API: label(entry) gives 1 (yes) if the entry's normalized growth is strictly smaller than 1; on equality or larger values it gives 0 (no).

compound: CN(C)CCOC(=O)COc1ccc(Cl)cc1
assigned_category: 1 (yes)
--
compound: Cc1ncc([N+](=O)[O-])n1CC(C)O (stereo not drawn)
assigned_category: 1 (yes)
--
compound: NC(=O)c1ncn(C2O[C@H](CO)[C@@H](O)[C@H]2O)c1N (stereo partly drawn)
assigned_category: 0 (no)

Does O=C(O)CCCOc1ccc(Cl)cc1Cl have normalized growth strictly under 1?
1 (yes)

I'd appreciate it if you could check whether COc1c2ccccc2nc2occc12 has normalized growth smaller than 1.
1 (yes)

Please check: normalized growth for COC(=O)CCCOc1ccc(Cl)cc1Cl , strictly under 1 or not?
1 (yes)
